Reported IC50 is given for each of the following compounds.
test: Antiplatelet aggregation activity against adenosine diphosphate-induced human platelet rich plasma assessed as inhibition of platelet aggregation by turbidimetric method; assay type: functional; details: Homo sapiens, Platelet, Plasma

testSmiles: CCCCCNC(=O)N1CCN(C(=O)[C@H](CCC(=O)O)NC(=O)c2cccc(-c3ccccc3)n2)CC1
IC50: > 100 µM
--
testSmiles: CCOC(=O)N1CCN(C(=O)[C@H](CCC(=O)O)NC(=O)c2cc(N(C)C)cc(-c3ccccc3)n2)CC1
IC50: > 100 µM
--
testSmiles: Cc1cccc(N2CCN(C(=O)[C@H](CCC(=O)O)NC(=O)c3cc(-c4ccccc4)ccn3)CC2)c1
IC50: > 100 µM
--
testSmiles: O=C(O)CC[C@H](NC(=O)c1cccc(-c2ccccc2)n1)C(=O)N1CCN(S(=O)(=O)c2ccccc2)CC1
IC50: > 100 µM
--
testSmiles: CCOC(=O)N1CCN(C(=O)[C@H](CCC(=O)O)NC(=O)c2cc(-c3ccccc3)nc(-c3ccccc3)c2)CC1
IC50: > 50 µM
--
testSmiles: CC(C)(C)OC(=O)CC[C@H](NC(=O)c1cccc(-c2ccccc2)n1)C(=O)N1CCNCC1
IC50: > 100 µM
--
testSmiles: CCOC(=O)N1CCN(C(=O)[C@H](CCC(=O)O)NC(=O)c2cc(-c3ccccc3)ccn2)CC1
IC50: > 100 µM
--
testSmiles: CCCCOC(=O)N1CCN(C(=O)[C@H](CCC(=O)O)NC(=O)c2cc(OC(=O)N3CC[C@@H](OC)C3)cc(-c3ccccc3)n2)CC1
IC50: 0.77 µM
--
testSmiles: CCCCCOC(=O)N1CCN(C(=O)[C@H](CCC(=O)O)NC(=O)c2cc(OC(=O)N3CCCCC3)cc(-c3ccccc3)n2)CC1
IC50: 2.1 µM
--
testSmiles: CCCCCOC(=O)N1CCN(C(=O)[C@H](CCC(=O)O)NC(=O)c2cc(NC(C)=O)cc(-c3ccccc3)n2)CC1
IC50: > 10 µM
--
testSmiles: CCCCCOC(=O)N1CCN(C(=O)[C@H](CCC(=O)O)NC(=O)c2cc(C(N)=O)cc(-c3ccccc3)n2)CC1
IC50: 8.9 µM
--
testSmiles: CCCCCN1CCN(C(=O)[C@H](CCC(=O)O)NC(=O)c2cccc(-c3ccccc3)n2)CC1
IC50: > 100 µM
--
testSmiles: CCCCOC(=O)N1CCN(C(=O)[C@H](CCC(=O)O)NC(=O)c2cc(OCC3CCN(S(=O)(=O)CC)CC3)cc(-c3ccccc3)n2)CC1
IC50: 3 µM
--
testSmiles: C#CCCOC(=O)N1CCN(C(=O)[C@H](CCC(=O)O)NC(=O)c2cccc(-c3ccccc3)n2)CC1
IC50: > 100 µM
--
testSmiles: CCOC(=O)N1CCN(C(=O)[C@H](CCC(=O)O)NC(=O)c2cc(N(C)CCO)cc(-c3ccccc3)n2)CC1
IC50: 57 µM
